# System: KARPAS-620 cell line
# protocol-description: Proliferation assay
# Type: cell-based
# test-parameters: p-ERK High, read-out: IC50 (μM) Trametinib
reported-property: IC50 (nM)
Give bare numbers, in nM.

Notebook entry, KARPAS-620 cell line assay: IC50 of `CC(=O)Nc1cccc(-n2c(=O)n(C3CC3)c(=O)c3c(Nc4ccc(I)cc4F)n(C)c(=O)c(C)c32)c1` = ?
0.07
